Tested on: PGA-1 cells
PROTOCOL_TEXT: alamarBlue cell viability assay
CONDITION: Homo sapiens, 24 h, read-out: cell viability
Would you kindly list viability at 10 µM for each of these compounds?
Return type: number; implicit unit %.

viability at 10 µM reported for this compound O=C1C2C(C(=O)N1c1ccccc1)C1(/C=C/[N+](=O)[O-])c3ccccc3C2(Cl)c2ccccc21 (stereo not shown) [Compound 20g] : 1

Record O=C(/C=C/c1c2ccccc2cc2ccccc12)c1ccc(F)cc1 [Compound 21h] , field viability at 10 µM: 70

# viability at 10 µM (compound: O=C(/C=C/C12c3ccccc3C(c3ccccc31)C1C(=O)N(c3ccccc3)C(=O)C12)c1ccc(Br)cc1 (stereo not shown) [Compound 24a] ) is 25

Just so you know, measured viability at 10 µM for O=C1NC(=O)C2C1C1c3ccccc3C2(C=C[N+](=O)[O-])c2ccccc21 (stereo not shown) [Compound 20d] came out at 17

====

Tested on: HT29
PROTOCOL_TEXT: NCI-60 five-dose assay
Assay type: cell-based, human
CONDITION: chemoresistant HT-29 human colorectal adenocarcinoma cell line
ENDPOINT: IC50 (nM)
Note: unit nM is implicit; provide only the numeric part.

Entry O=C(C=CC12c3ccccc3C(c3ccccc31)C1C(=O)N(c3ccc(Cl)cc3)C(=O)C12)c1ccccn1 (stereo not shown) [Compound 25n] — recorded IC50 = 335

====

Give measured Half-life pH 7.4 for each item. Keep answers brief.
PROTOCOL_TEXT: HPLC stability study in phosphate buffers
Format: physicochemical
CONDITION: pH 7.4 buffer, 37 °C
The reply should contain only the number, in h.

Briefly, Half-life pH 7.4 measured for O=C(/C=C/C12c3ccccc3C(c3ccccc31)C1C(=O)NC(=O)C12)c1ccc(I)cc1 (stereo not drawn) [Compound 23g] : 8.9

Kindly note the recorded Half-life pH 7.4 for O=C(c1ccccc1)c1ccc(N2C(=O)C3C4c5ccccc5C(/C=C/C(=O)c5ccccn5)(c5ccccc54)C3C2=O)cc1 (stereo not drawn) [Compound 26n] , which is 16.5

According to the records, this compound O=C(/C=C/C12c3ccccc3C(c3ccccc31)C1C(=O)OC(=O)C12)c1ccc(F)cc1 (stereo not drawn) [Compound 22h] displays Half-life pH 7.4 of 1

====

Please provide measured remaining at 24 h, 14.6 µg/mL for the entries that follow.
PROTOCOL_TEXT: HPLC stability study in phosphate buffers
Type: physicochemical
CONDITION: phosphate buffer; pH 4 buffer, 37 °C, 24 h, HPLC; read-out: % remaining 24 h pH 4
Field: numeric (%). Do not append units.

Reported remaining at 24 h, 14.6 µg/mL of O=C(/C=C/c1c2ccccc2cc2ccccc12)c1ccc(Br)cc1 [Compound 21a] : 46.3

What the record says about COc1ccc(C(=O)/C=C/c2c3ccccc3cc3ccccc23)cc1 [Compound 21i] : remaining at 24 h, 14.6 µg/mL is 27.9

The compound O=C(/C=C/C12c3ccccc3C(c3ccccc31)C1C(=O)N(c3ccccc3)C(=O)C12)c1ccc(Br)cc1 (stereo not shown) [Compound 24a] showed remaining at 24 h, 14.6 µg/mL equal to 48.4

# remaining at 24 h, 14.6 µg/mL (compound: O=C(C=CC12c3ccccc3C(c3ccccc31)C1C(=O)NC(=O)C12)c1ccc(Br)cc1 (stereo not shown) [Compound 23a] ) is 3.12
